Hi there, I'd appreciate the recorded viability for every entry that follows.
assay: reducers of endogenous Her2 protein level, primary screen, SKBR3 breast tumor cells, AlphaScreen, ATP viability (AID 461); details: 18-24 h, measured here: SKBR3 viability, ATP luminescence, at 10 µM;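 further: percent of carrier control wells set as 100% viability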
Give bare numbers, in %.

// known answers, use as guide
CCCNC(=O)c1c(N)n(-c2cc(OC)cc(OC)c2)c2nc3ccccc3nc12 :: 89
CC(=O)Nc1ccc(-c2cc3ccccc3o2)cc1 :: 103
CC(C)(C)c1ccc(OCC(=O)O)cc1 :: 102
C=CCn1c(SCc2ccc3nonc3c2)nnc1-c1cccs1 :: 84
CCOC(=O)NC(=O)CSc1nnnn1-c1ccc(Cl)cc1 :: 86.5
CCn1c(=O)cc(SCC(=O)Nc2ccc3c(c2)OCO3)c2ccccc21 :: 97

Please report viability for every entry that follows.
1. CC(C)C[C@H]1C(=O)N2CCC[C@H]2[C@]2(O)O[C@](NC(=O)[C@@H]3C=C4c5cccc6[nH]c(Br)c(c56)CC4N(C)C3)(C(C)C)C(=O)N12 (stereo partly drawn)
2. O=C(NCc1ccccc1)N[C@@H](Cc1ccccc1)C(=O)O
3. Cc1ccc2c(c1)CCCN2C(=O)C1CCCO1 (stereo not drawn)
4. Cc1c(C(=O)NC2CCCc3ccccc32)oc2ccc(S(=O)(=O)N3CCOCC3)cc12 (stereo not drawn)
5. Cc1ccc(NC(=O)CSc2nnc(CCCCCNC(=O)OC(C)(C)C)o2)c(C)c1
6. CCN1CCN(CCNC(=O)c2cn(C(C)c3ccccc3F)nn2)CC1 (stereo not drawn)
7. Cc1nn(C)cc1/C=N/O

Result:
138
96
101
94.5
112
122
100

###

Hi there, I'd appreciate the recorded viability for every entry that follows.
experiment: reducers of endogenous Her2 protein level, primary screen, SKBR3 breast tumor cells, AlphaScreen, ATP viability (AID 461); details: 18-24 h, measured here: SKBR3 viability, ATP luminescence, at 10 µM;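 further: percent of carrier control wells set as 100% viability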
Respond with the figure and its unit, in that order.

// known answers, use as guide
O=C(Nc1cccc2c1CCCC2)C1CCN(c2nnnn2-c2ccccc2)CC1 :: 92%
COCc1cc(=O)[nH]c(Nc2nc3ccccc3o2)n1 :: 112%
COCCOC(=O)c1cc(C(=O)c2cc(F)ccc2O)coc1=N :: 83.5%

Please report viability for every entry that follows.
1. CC(C)COc1ccc(-c2nnn(CC(=O)N3CCCC3)n2)cc1
2. O=C1c2cccnc2C(O)N1Cc1ccc(F)cc1 (stereo not given)
3. CCn1c(CNc2ccc(OC)cc2)nnc1SCC(=O)c1ccc(OC)cc1
4. Cc1cc(Nc2ccccc2F)n2ncnc2n1

Result:
["86%", "104%", "110%", "101%"]

Please report viability for every entry that follows.
1. CCC(=O)Nc1cc(C)c(NC(=O)C23CC4CC(CC(C4)C2)C3)cn1
2. COc1cccc(CN=CC2=C(O)CC(C)(C)CC2=O)c1OC
3. CC(C)(C)n1nnnc1C(c1cccc(C#N)c1)N1CCC(Cc2ccccc2)CC1 (stereo not given)

Result:
["106%", "106%", "87.5%"]

Please report viability for every entry that follows.
1. CCn1c(CNc2ccc(C)cc2)nnc1SCC(=O)NCc1ccccc1
2. Cc1ccccc1-c1nc(CS(=O)(=O)CC(=O)NCc2ccccc2)c(C)o1
3. Nc1nc(CSc2nc3ccccc3[nH]2)nc(N2CCOCC2)n1
4. Cc1nn(-c2ccccc2)c2c1C(O)n1c(nc3ccccc31)S2 (stereo not given)
5. COc1ccccc1NC(=O)NCCCN1CCN(c2cccc(Cl)c2)CC1
6. O=C(NCc1ccco1)c1cc2c(s1)CSC2

Result:
89%
93.5%
96%
91%
77%
97.5%

###

test: growth inhibitors of H69AR lung tumor, primary screen, human, duplicate replicates (AID 580); details: H69AR lung tumor cells viability, ATP luminescence, 72 h; at 10 µM; stronger effect = lower value;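 further: 100% = mean luminescence of untreated wells and 0% = no signal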
ASSAY_ENDPOINT: viability (%)
Give bare numbers, in %.

CNCCCC12CCC(c3ccccc31)c1ccccc12 :: 70.1
Nn1c(SCC(=O)Nc2ccc(S(=O)(=O)N3CCCC3)cc2)nnc1C(F)(F)F :: 90.8
CSc1c(CC(=O)NCCO)n(C)c2ccccc12 :: 102
OCc1nc2ccccc2n1CCCOc1ccccc1 :: 103
COc1cc(NC(=O)c2cc(-n3cnnc3)ccc2Cl)cc(OC)c1 :: 104
CN(C(=O)Cn1c(=O)n(CCCCC(=O)NC2CCCC2)c(=O)c2ccccc21)C1CCCCC1 :: 93
CCOCCn1c(CN2CCN(c3cccc(Cl)c3)CC2)nc2c1c(=O)n(C)c(=O)n2C :: 80.1
CCOC(=O)C1CCN(C(=O)Nc2ccc3snnc3c2)CC1 :: 94.9

Please report viability for every entry that follows.
1. COCCNC(=O)c1snc2ccc(Cl)cc12
2. c1ccc(-c2n[nH]c3ccccc23)cc1
3. O=S1(=O)CCC(N=Cc2cc(Br)ccc2O)C1 (configuration not stated)
4. Cc1cc(/N=C/N(C)C)on1

Result:
102
103
78.1
93.7

Please report viability for every entry that follows.
1. Cc1oc(-c2ccc(Cl)cc2)cc1-c1nn2c(-c3ccoc3C)nnc2s1
2. CC(=O)Nc1ccc(NC(=O)C(C)Oc2ccccc2F)cc1 (configuration not stated)
3. CCc1ccccc1NC(=O)CSC1=C(C#N)C(c2ccc(O)c(OC)c2)C2=C(CCCC2=O)N1 (configuration not stated)
4. Cc1ccc(S(=O)(=O)NC(C(=O)OCC(=O)NC2CCS(=O)(=O)C2)C(C)C)cc1 (configuration not stated)
5. O=C(CN1CCC(O)(c2ccc3c(c2)OCO3)CC1)OC1CCCCC1

Result:
[83.7, 103, 47.9, 92.9, 96.8]

###

test: 384-well plate pilot, post-Golgi transport modulator project, inhibition of yeast transport mutant growth (AID 636); conditions: absorbance 615 nm, about 18 h, stronger effect = higher value
Hi there, I'd appreciate the recorded inhibition for every entry that follows.
Give bare numbers, in %.

C#CCSc1nc(-c2cccs2)ccc1C#N :: -0.96
COc1ccc(S(=O)(=O)Nc2ccccc2OC)cc1C :: 0
COc1ccc(S(=O)(=O)Cc2ccc(C(=O)N3CCN(Cc4ccccc4)CC3)o2)cc1 :: -1.41
Cc1nc2sc3c(c2c(=O)o1)CCC3 :: -3.42

Please report inhibition for every entry that follows.
1. CCS(=O)(=O)N1CCCC(C(=O)NCCc2ccc(OC)c(OC)c2)C1 (stereo unspecified)
2. COC(=O)c1cc(Oc2ccc(C(=O)OC)cc2N)cc(C(=O)OC)c1
3. Cc1cc(C)cc(NC(=O)c2nnn(Cc3cc(C)ccc3C)c2N)c1

Result:
[1.07, -1.32, -0.8]

Please report inhibition for every entry that follows.
1. Cn1c(=O)[nH]c(=O)c2c1nc(Br)n2CCCSc1nc2ccccc2o1
2. COCCSc1nnc(NC(=O)CSCc2ccccc2)s1
3. CCOC(=O)CSc1nnc(-c2ccc(Cl)cc2Cl)o1

Result:
-4.13
-11
-5.07

Please report inhibition for every entry that follows.
1. Cc1csc2ncc(C(=O)Nc3ccccc3Cl)c(=O)n12
2. O=S(CC(O)COCc1ccc(Cl)cc1)c1ccccn1 (stereo unspecified)
3. O=C(Nc1cccnc1)Nc1ccc(F)c(Cl)c1

Result:
1. -4.13
2. -1.95
3. -2.19

###

test: growth inhibitors of H69AR lung tumor, primary screen, human, duplicate replicates (AID 580); details: H69AR lung tumor cells viability, ATP luminescence, 72 h; at 10 µM;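 further: 100% = mean luminescence of untreated wells and 0% = no signal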
Activity calls are given as the source filed them.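 Rule for the calls: active = viability at or under a set limit in both replicates, limit being median viability minus 3 SD (cut at about 48% in these data, passing the limit was not always enough); inconclusive = at or under the limit in just one replicate; inactive = at or above the limit in both replicates.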
Reply using exactly one outcome from active, inactive

CCc1[nH]nc2c1C1(CCN(C(=O)OCc3ccccc3)CC1)C(C#N)=C(N)O2 :: inactive
COc1ccc(S(=O)(=O)NC(CC(=O)NCc2ccco2)c2ccco2)cc1 (stereo not given) :: inactive

Query: Test call for this compound, please: `Cc1cc(C)c(NC(=O)CSc2nnc(-c3ccncc3)n2Cc2ccco2)c(C)c1`
Result: inactive

Query: Test call for this compound, please: `Cc1cc(C)nc(SCc2nnc(SCC(=O)Nc3ncc(C)s3)n2Cc2ccco2)n1`
Result: inactive

###

assay: OD615 S. cerevisiae growth inhibition, permissive medium, pilot counter-assay, permissive growth control for S. cerevisiae lifespan shortening project (AID 705); details: OD615, 24 h, at 10 µM, stronger effect = higher value
ASSAY_ENDPOINT: growth inhibition (%)
Numbers only, in %.

// known answers, use as guide
CC(C)COC(=O)C1C2C=CC3(CN(C(C)c4ccc(Br)cc4)C(=O)C13)O2 (stereo not drawn) :: -9.09
O=C(COC(=O)c1cnccn1)c1ccc(OC(=O)c2ccccc2)cc1 :: -19.2
Cc1[nH]c2ccccc2c1Cc1nnc(SCC(=O)NCc2ccco2)o1 :: -12.4
OC(CN1CCN(c2ccccc2)CC1)c1ccc2c(c1)CCN2 (stereo not drawn) :: -10.4
COc1ccc(OC)c(NC(=O)CCNS(=O)(=O)c2cccs2)c1 :: -2.31

Please report growth inhibition for every entry that follows.
1. COc1ccc(-c2nc(CS(=O)CC(=O)N3CCCC3)c(C)o2)cc1 (stereo not drawn)
2. Cc1cccc(OCC(=O)N2CCC(c3ccccc3)C2)c1 (stereo not drawn)
3. Cc1ccc(-c2cc(C(F)F)nc(NCC3CCCO3)n2)cc1 (stereo not drawn)
4. Cc1ccc(CCNC(=O)C2CCCN2S(=O)(=O)c2ccc3c(c2)CCC(=O)N3)cc1 (stereo not drawn)

Result:
-4.09
-17.9
-12.2
-8.07

Please report growth inhibition for every entry that follows.
1. CCn1c(SCC(=O)Nc2ccc3c(c2)OCO3)nc2c(c1=O)SC(C)C2 (stereo not drawn)
2. CSc1nc2ccc(Nc3nc(N4CCOCC4)nc(N4CCOCC4)n3)cc2s1
3. CC1CC(C)CN(c2ncnc3c2cnn3-c2ccc(Cl)cc2)C1 (stereo not drawn)
4. Cc1csc(NC(=O)CSc2nnc(Cc3cccn3C)n2-c2ccc(F)cc2)n1

Result:
[-7.09, -4.93, -5.74, -9.58]
